Target: Mouse EL (Mus musculus, UniProt Q9WVG5)
Sequence (Q9WVG5 21-500): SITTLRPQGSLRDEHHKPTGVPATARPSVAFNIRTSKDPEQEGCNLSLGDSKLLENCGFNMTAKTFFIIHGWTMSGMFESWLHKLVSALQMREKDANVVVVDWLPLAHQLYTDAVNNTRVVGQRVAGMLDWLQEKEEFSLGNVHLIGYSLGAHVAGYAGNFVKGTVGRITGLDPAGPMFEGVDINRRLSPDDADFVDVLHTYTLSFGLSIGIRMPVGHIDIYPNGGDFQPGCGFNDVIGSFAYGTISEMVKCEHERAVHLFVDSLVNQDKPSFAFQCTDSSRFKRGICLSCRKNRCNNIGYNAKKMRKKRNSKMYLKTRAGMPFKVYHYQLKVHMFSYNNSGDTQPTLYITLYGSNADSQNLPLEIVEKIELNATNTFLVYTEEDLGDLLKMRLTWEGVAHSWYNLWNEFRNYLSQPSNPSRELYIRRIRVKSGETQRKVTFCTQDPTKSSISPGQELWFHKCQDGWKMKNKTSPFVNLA
Assay: Endothelial Lipase Assay, cell surface lipase activity (mouse)
Settings: PLA1 substrate 10 μM, fluorescence reaction rate, several values in a cell are repeat determinations
pIC50: −log10 of the molar value.

compound	study_system	pIC50
O=C(CCCCCOc1cc(F)ccc1F)C(=O)NCc1nnc(-c2ccc(OCc3ccccc3)cc2)o1 [Compound 94]	Mouse EL (Mus musculus, UniProt Q9WVG5)	6.20
O=C(CCCCCCc1ccccc1)C(=O)NCc1nnc(-c2ccc(NCc3ccc(F)c(F)c3)cc2)o1 [Compound 118]	Mouse EL (Mus musculus, UniProt Q9WVG5)	6.32
CN(Cc1ccc(F)c(F)c1)c1ccc(-c2nnc(CNC(=O)C(=O)CCCCCCc3ccccc3)o2)cc1 [Compound 110]	Mouse EL (Mus musculus, UniProt Q9WVG5)	6.46
O=C(CCCCCCc1ccccc1)C(=O)NCc1nnc(-c2ccc3c(=O)n4c(nc3c2)CCC4)o1 [Compound 19]	Mouse EL (Mus musculus, UniProt Q9WVG5)	5.52
O=C(CCCCCOc1cccc(Cl)c1)C(=O)NCc1nnc(-c2ccc(OCc3ccccc3)cc2)o1 [Compound 96]	Mouse EL (Mus musculus, UniProt Q9WVG5)	6.18
Cc1cc(COc2ccc(-c3nnc(CNC(=O)C(=O)CCCCCCc4ccccc4)s3)cc2)ccn1 [Compound 174]	Mouse EL (Mus musculus, UniProt Q9WVG5)	7.29
COc1ccc(COc2ccc(-c3nnc(CNC(=O)C(=O)CCCCCCc4ccccc4)o3)cc2)cc1 [Compound 81]	Mouse EL (Mus musculus, UniProt Q9WVG5)	5.08
Cn1ccnc1COc1ccc(-c2nnc(CNC(=O)C(=O)CCCCCCc3ccccc3)o2)cc1 [Compound 78]	Mouse EL (Mus musculus, UniProt Q9WVG5)	6.11

---

Target: UniProtKB Q9WVG5
Assay: Endothelial Lipase Assay, cell surface lipase activity (mouse)
Settings: PLA1 substrate 10 μM, fluorescence reaction rate, several values in a cell are repeat determinations
pIC50: −log10 of the molar value.
Lab note: compare pIC50 against 6. Equal or greater, write YES. Smaller, write NO.

smiles_notation	cat
O=C(CCCCCOc1cccc(Cl)c1)C(=O)NCc1nnc(-c2ccc(Oc3ccccc3)cc2)s1	YES
O=C(CCCCCNc1ncccn1)C(=O)NCc1nnc(-c2ccccc2)o1	NO
O=C(CCCCCOc1cccc(F)c1)C(=O)NCc1nnc(-c2cccc(Oc3ccccc3)c2)o1	NO
N#Cc1ccc(CCCCCCC(=O)C(=O)NCc2nnc(-c3ccccc3)o2)cc1	YES
O=C(CCCCCCc1ccc(C(F)(F)F)nc1)C(=O)NCc1nnc(-c2ccc(Oc3ccccc3)cc2)o1	YES
O=C(CCCCCCc1ccccc1)C(=O)NCc1nnc(-c2ccc(OCc3ccccc3F)cc2)s1	YES

---

Biological target: Mouse EL (Mus musculus)
Assay: Endothelial Lipase Assay, cell surface lipase activity (mouse)
Settings: PLA1 substrate 10 μM, fluorescence reaction rate, several values in a cell are repeat determinations
// assign label 1 if IC50 falls strictly below 800 nM, else label 0 (ties count as label 0)

smiles_notation	cat
O=C(CCCCCCc1ccccc1)C(=O)NCc1nnc(-c2ccc(OCc3ccccn3)cc2)s1	label 1
O=C(CCCCCCc1ccccc1)C(=O)NCc1nnc(-c2ccc(OCn3nnc4ccccc43)cc2)o1	label 1
COC(=O)c1cccc(COc2ccc(-c3nnc(CNC(=O)C(=O)CCCCCCc4ccccc4)o3)cc2)c1	label 1
O=C(CCCCCCc1ccccc1)C(=O)NCc1nnc(-c2ccc(OCc3ccccc3F)cc2)o1	label 1
O=C(CCCCCCc1cccnc1F)C(=O)NCc1nnc(-c2ccc(Oc3ccccc3)cc2)o1	label 0
CC(C)(C)OC(=O)N(Cc1ccccc1)c1ccc(-c2nnc(CNC(=O)C(=O)CCCCCCc3ccccc3)o2)cc1	label 1
O=C(CCCCCCc1ccc2nc(Cl)ccc2c1)C(=O)NCc1nnc(-c2ccccc2)o1	label 1
O=C(CCCCCCc1ccccc1)C(=O)NCc1nnc(-c2ccc(-c3ccccc3)cc2)o1	label 0
O=C(CCCCCCc1ccccc1)C(=O)NCc1nnc(-c2ccc(OCc3ccncn3)cc2)o1	label 1
O=C(CCCCCCc1ccccc1)C(=O)NCc1nnc(-c2ccc(NCc3ccccc3)cc2)o1	label 1
O=C(CCCCCCc1cccc(OC(F)(F)F)c1)C(=O)NCc1nnc(-c2ccccc2)o1	label 1
O=C(CCCCCOc1cc(F)cc(F)c1)C(=O)NCc1nnc(-c2ccc(Oc3ccccc3)cc2)s1	label 1
O=C(CCCCCCc1ccccc1)C(=O)NCc1nnc(-c2ccc(Cl)cc2)o1	label 1
O=C(CCCCCCc1ccc(F)nc1)C(=O)NCc1nnc(-c2ccc(OCc3cccc(F)c3)cc2)s1	label 1
Cc1ncsc1CCCCCCC(=O)C(=O)NCc1nnc(-c2ccc(OCc3cccc(F)c3)cc2)s1	label 1
COc1cccc(OCCCCCC(=O)C(=O)NCc2nnc(-c3ccccc3)o2)c1	label 0
O=C(CCCCCCc1ccccc1)C(=O)NCc1nnc(-c2cc(F)cc(F)c2)o1	label 1
O=C(CCCCCOc1cccc(F)c1)C(=O)NCc1nnc(-c2ccc(OCc3ccccc3)cc2)o1	label 0
O=C(CCCCCc1ccccc1)C(=O)NCc1nnc(-c2ccc3ccccc3c2)o1	label 1
Cc1ccc(-c2nnc(CNC(=O)C(=O)CCCCCOc3ccccc3)o2)cc1	label 0
O=C(CCCCCCc1ccccc1)C(=O)NCc1nnc(-c2ccc(OCc3cc[n+]([O-])cc3)cc2)s1	label 1
N#Cc1cccc(COc2ccc(-c3nnc(CNC(=O)C(=O)CCCCCCc4ccccc4)s3)cc2)c1	label 1
O=C(CCCCCCc1ccccc1)C(=O)NCc1nnc(-c2ccc(OCc3ccncc3)cc2)s1	label 1
O=C(CCCCCOc1cccc(F)c1)C(=O)NCc1nnc(-c2ccc(Oc3ccc(Cl)cc3)cc2)o1	label 0
O=C(CCCCCCc1ccccc1)C(=O)NCc1nnc(-c2ccc(OCc3ccnc(Cl)c3)cc2)s1	label 1
O=C(CCCCCOc1cccc(F)c1)C(=O)NCc1nnc(-c2ccccc2)o1	label 0
O=C(CCCCCCc1ccccc1)C(=O)NCc1nnc(-c2ccc(OCc3ccncc3)cc2)o1	label 1
Cc1ccc(-c2nnc(CNC(=O)C(=O)CCCCCc3ccccc3)o2)cc1	label 0
O=C(CCCCCNc1ncccn1)C(=O)NCc1nnc(-c2ccc(OCc3ccccc3)cc2)o1	label 0
O=C(CCCCCOc1cc(F)cc(F)c1)C(=O)NCc1nnc(-c2ccc(Oc3ccccc3)cc2)o1	label 1

---

Target: Mouse EL (Mus musculus)
Assay: Endothelial Lipase Assay, cell surface lipase activity (mouse)
Settings: PLA1 substrate 10 μM, fluorescence reaction rate, several values in a cell are repeat determinations
Measured IC50, listed per entry.

smiles_notation	unit_of_measure	IC50
O=C(CCCCCCc1ccc(F)nc1)C(=O)NCc1nnc(-c2ccc(OCc3ccnc(F)c3)cc2)s1	µM	0.064
O=C(CCCCCCc1ccccc1)C(=O)NCc1nnc(-c2ccc(F)c(F)c2)o1	µM	0.552
O=C(CCCCCCc1ccccc1F)C(=O)NCc1nnc(-c2ccccc2)o1	µM	0.802
O=C(CCCCCCc1ccccc1)C(=O)NCc1nnc(-c2ccc(OCc3cccc(F)n3)cc2)o1	µM	0.187
COC(=O)c1ccc(COc2ccc(-c3nnc(CNC(=O)C(=O)CCCCCCc4ccccc4)s3)cc2)o1	µM	0.045
CN(Cc1ccccn1)c1ccc(-c2nnc(CNC(=O)C(=O)CCCCCCc3ccccc3)o2)cc1	µM	0.156
Cc1ccc(-c2nnc(CNC(=O)C(=O)CCCCCc3ccc(-c4ccccc4)cc3)o2)cc1	µM	1.47
COc1ccc(C#CCCCC(=O)C(=O)NCc2nnc(-c3ccccc3)o2)cc1	µM	24.1

---

Target: Mouse EL (Mus musculus, UniProt Q9WVG5)
Experiment: Endothelial Lipase Assay, cell surface lipase activity (mouse)
Settings: PLA1 substrate 10 μM, fluorescence reaction rate, several values in a cell are repeat determinations
Method: Endothelial Lipase Assay (Human/Mouse) To assay for cell surface lipase activity, cells expressing human endothelial lipase (EL) or LPL were plated in CellBIND® 384-well plates (Corning, Lowell, Mass.) in 25 μL serum free medium at a density of 2000 cells/well. […] Fluorescence signal was monitored for 30 min at 37° C. on a Safire II plate reader in kinetic mode (60 cycles, kinetic interval: 30 seconds) with an excitation wavelength of 490 nm and an emission wavelength of 515 nm. […]
pIC50: −log10 of the molar value.
Answer False if pIC50 is under 6, and True if it is 6 or more.

smiles_notation	study_system	cat
O=C(CCCCCOc1cccc(F)c1)C(=O)NCc1nnc(-c2ccc(Oc3ccccc3)cc2)o1	Mouse EL (Mus musculus, UniProt Q9WVG5)	True
COc1cccc(C#CCCCC(=O)C(=O)NCc2nnc(-c3ccccc3)o2)c1	Mouse EL (Mus musculus, UniProt Q9WVG5)	False
O=C(CCCCCCc1ccccc1)C(=O)NCc1nnc(-c2cccc(Cl)c2)o1	Mouse EL (Mus musculus, UniProt Q9WVG5)	True
O=C(CCCCCOc1ccccc1)C(=O)NCc1nnc(-c2ccc(Oc3ccccc3)cc2)o1	Mouse EL (Mus musculus, UniProt Q9WVG5)	False
N#Cc1cccc(COc2ccc(-c3nnc(CNC(=O)C(=O)CCCCCCc4ccccc4)o3)cc2)c1	Mouse EL (Mus musculus, UniProt Q9WVG5)	True
O=C(CCCCCCc1ccccc1)C(=O)NCc1nnc(-c2ccc(OCc3cccc(F)c3)cc2)o1	Mouse EL (Mus musculus, UniProt Q9WVG5)	True
CN(c1ccc(Br)cc1)c1ccc(-c2nnc(CNC(=O)C(=O)CCCCCCc3ccccc3)o2)cc1	Mouse EL (Mus musculus, UniProt Q9WVG5)	False
O=C(CCCCCCc1ccccc1)C(=O)NCc1nnc(-c2ccc(OCc3ccccc3)cc2)s1	Mouse EL (Mus musculus, UniProt Q9WVG5)	True
O=C(CCCCCOc1ccccc1)C(=O)NCc1nnc(-c2ccccc2)o1	Mouse EL (Mus musculus, UniProt Q9WVG5)	False
O=C(CCCCCCc1ccccc1)C(=O)NCc1nnc(-c2ccc(OCc3cccc(C(=O)O)c3)cc2)o1	Mouse EL (Mus musculus, UniProt Q9WVG5)	True
O=C(CCCCCCc1ccccc1)C(=O)NCc1nnc(-c2ccc(NCc3cccnc3)cc2)o1	Mouse EL (Mus musculus, UniProt Q9WVG5)	False
Cc1ncsc1CCCCCCC(=O)C(=O)NCc1nnc(-c2ccc(OCc3ccncc3)cc2)s1	Mouse EL (Mus musculus, UniProt Q9WVG5)	True
